The reported numbers originate from patent US11427563B2.

Target of assay: JAK3 enzyme (Homo sapiens (Human))
Sequence (P52333 whole entry, species assumed): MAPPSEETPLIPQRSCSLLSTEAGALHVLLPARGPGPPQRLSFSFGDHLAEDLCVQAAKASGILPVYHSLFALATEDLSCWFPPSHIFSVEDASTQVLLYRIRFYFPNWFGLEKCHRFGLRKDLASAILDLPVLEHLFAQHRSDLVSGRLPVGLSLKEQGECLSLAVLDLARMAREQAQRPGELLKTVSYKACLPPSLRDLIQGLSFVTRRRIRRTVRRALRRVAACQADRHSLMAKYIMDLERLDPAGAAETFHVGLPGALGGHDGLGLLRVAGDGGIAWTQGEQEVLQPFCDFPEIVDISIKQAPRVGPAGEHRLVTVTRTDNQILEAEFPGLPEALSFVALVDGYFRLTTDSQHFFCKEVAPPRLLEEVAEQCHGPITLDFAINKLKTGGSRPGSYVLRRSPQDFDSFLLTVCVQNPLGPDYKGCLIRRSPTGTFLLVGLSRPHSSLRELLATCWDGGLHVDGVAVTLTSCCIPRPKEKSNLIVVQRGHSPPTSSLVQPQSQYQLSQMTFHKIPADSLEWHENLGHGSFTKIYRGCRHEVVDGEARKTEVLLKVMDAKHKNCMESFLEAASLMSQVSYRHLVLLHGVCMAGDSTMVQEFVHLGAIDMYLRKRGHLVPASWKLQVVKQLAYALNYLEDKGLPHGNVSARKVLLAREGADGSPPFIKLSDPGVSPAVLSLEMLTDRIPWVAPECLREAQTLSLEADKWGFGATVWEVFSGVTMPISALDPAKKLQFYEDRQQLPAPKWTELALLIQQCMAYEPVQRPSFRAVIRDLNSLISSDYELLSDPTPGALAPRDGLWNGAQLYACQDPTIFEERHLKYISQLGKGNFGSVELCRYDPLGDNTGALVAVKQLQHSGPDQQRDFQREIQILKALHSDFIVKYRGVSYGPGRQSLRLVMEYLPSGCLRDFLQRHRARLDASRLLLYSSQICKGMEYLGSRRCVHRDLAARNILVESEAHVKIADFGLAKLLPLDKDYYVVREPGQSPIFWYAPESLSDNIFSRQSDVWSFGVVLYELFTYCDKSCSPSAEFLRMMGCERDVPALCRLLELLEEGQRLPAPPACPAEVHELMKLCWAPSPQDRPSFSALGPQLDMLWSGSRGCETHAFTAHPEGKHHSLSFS
Protocol description: JAK kinase assay (JAK3)
Format: biochemical
Measurement context: Table 1
Can you tell me IC50 for the items I'm about to list?
Just the number in nM, nothing appended.

Query CCc1cncc2ccc(NC(=O)[C@@H]3C[C@H]3c3ccc(S(=O)(=O)Nc4ncccn4)cc3)cc12 yields IC50 of 5.8

Query Cc1cncc2ccc(NC(=O)[C@@H]3CC3c3ccc(S(=O)(=O)Nc4cnccn4)cc3)cc12 (stereo partly shown) yields IC50 of 14

Query CCc1cncc2ccc(NC(=O)[C@@H]3CC3c3ccc(S(=O)(=O)Nc4ccccn4)cc3)cc12 (stereo partly shown) yields IC50 of 4.2

Query O=C(Nc1ccc2cnccc2c1)[C@@H]1CC1c1cc(F)ccc1S(=O)(=O)Nc1ccccn1 (stereo partly shown) yields IC50 of 6750

Query O=C(Nc1ccc2cnccc2c1)[C@@H]1CC1c1ccc(S(=O)(=O)Nc2ccccn2)c(F)c1 (stereo partly shown) yields IC50 of 19.5

Query O=C(Nc1ccc2cncc(Cl)c2c1)[C@@H]1C[C@H]1c1ccc(S(=O)(=O)Nc2ccc(F)cn2)cc1 yields IC50 of 4.8

Query O=C(Nc1ccc2cnccc2c1F)[C@@H]1C[C@H]1c1ccc(S(=O)(=O)Nc2cccnc2)cc1 yields IC50 of 350

----------
Can you tell me IC50 for the items I'm about to list?
Target of assay: ROCK2 enzyme (Homo sapiens (Human), UniProt O75116)
Sequence (O75116 whole entry, species assumed): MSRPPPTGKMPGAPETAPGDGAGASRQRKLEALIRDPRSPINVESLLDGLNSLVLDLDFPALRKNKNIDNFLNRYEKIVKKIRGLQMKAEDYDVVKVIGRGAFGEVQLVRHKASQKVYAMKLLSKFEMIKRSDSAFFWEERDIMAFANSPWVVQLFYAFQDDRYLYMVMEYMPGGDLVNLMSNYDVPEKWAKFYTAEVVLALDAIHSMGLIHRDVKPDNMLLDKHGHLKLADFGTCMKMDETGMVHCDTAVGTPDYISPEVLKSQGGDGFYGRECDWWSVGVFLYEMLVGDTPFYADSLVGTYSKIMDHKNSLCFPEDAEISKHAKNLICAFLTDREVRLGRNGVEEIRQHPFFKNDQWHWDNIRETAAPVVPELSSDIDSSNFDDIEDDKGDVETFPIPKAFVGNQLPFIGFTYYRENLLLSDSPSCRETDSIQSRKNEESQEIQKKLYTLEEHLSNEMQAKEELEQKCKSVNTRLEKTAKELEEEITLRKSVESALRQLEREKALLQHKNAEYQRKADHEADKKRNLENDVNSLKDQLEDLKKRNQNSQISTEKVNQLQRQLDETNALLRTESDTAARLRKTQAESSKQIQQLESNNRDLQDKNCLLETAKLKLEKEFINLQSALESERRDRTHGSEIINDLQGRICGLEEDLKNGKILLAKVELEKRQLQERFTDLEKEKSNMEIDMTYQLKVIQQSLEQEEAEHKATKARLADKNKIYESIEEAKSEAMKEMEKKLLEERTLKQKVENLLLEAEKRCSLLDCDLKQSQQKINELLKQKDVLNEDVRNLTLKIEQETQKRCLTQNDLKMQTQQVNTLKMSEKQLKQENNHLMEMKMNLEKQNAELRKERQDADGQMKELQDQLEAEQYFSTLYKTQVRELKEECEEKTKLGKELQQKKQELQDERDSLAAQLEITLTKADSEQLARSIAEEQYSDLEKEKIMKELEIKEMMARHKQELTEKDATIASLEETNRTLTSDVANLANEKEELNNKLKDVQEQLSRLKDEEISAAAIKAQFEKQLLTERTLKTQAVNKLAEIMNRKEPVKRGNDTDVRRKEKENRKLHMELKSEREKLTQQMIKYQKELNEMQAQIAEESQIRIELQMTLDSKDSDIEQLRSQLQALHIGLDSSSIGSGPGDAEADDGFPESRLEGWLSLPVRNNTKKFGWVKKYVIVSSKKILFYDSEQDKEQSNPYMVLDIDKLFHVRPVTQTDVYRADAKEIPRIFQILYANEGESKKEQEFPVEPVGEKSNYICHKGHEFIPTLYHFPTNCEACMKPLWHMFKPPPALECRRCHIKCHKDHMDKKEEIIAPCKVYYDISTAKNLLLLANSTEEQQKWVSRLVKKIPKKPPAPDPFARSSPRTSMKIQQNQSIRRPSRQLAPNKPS
Protocol description: ROCK kinase inhibition assay (ROCK2)
Type: biochemical
Measurement context: Table 1
Just the number in nM, nothing appended.

Query O=C(Nc1ccc2cnccc2c1)[C@@H]1CC1c1ccc(S(=O)(=O)Nc2ccccn2)c(F)c1 (stereo partly shown) [Compound 18] yields IC50 of 4

Query N#Cc1cncc2ccc(NC(=O)[C@@H]3CC3c3ccc(S(=O)(=O)Nc4ccccn4)cc3)cc12 (stereo partly shown) [Compound 20] yields IC50 of 20

Query Cc1cncc2ccc(NC(=O)[C@@H]3CC3c3ccc(S(=O)(=O)Nc4cnccn4)cc3)cc12 (stereo partly shown) [Compound 10] yields IC50 of 74

Query Cc1cncc2ccc(NC(=O)[C@@H]3C[C@H]3c3ccc(S(=O)(=O)Nc4cncc(C5=CCNCC5)n4)cc3)cc12 [Compound 11] yields IC50 of 15

----------
Target of assay: ROCK2 enzyme (Homo sapiens (Human), UniProt O75116)
Protocol description: ROCK kinase inhibition assay (ROCK2)
Type: biochemical
Measurement context: Table 1
Doc: threshold 40 nM (exclusive). Items with IC50 beneath it return satisfied; others return not satisfied.

(Q) Hello, I'm reviewing records and need to know if IC50 of O=C(Nc1ccc2cncc(C(F)(F)F)c2c1)[C@@H]1C[C@H]1c1ccc(S(=O)(=O)Nc2ccccn2)cc1 [Compound 14] is below 40 nM. Could you check?
(A) not satisfied

(Q) Hello, I'm reviewing records and need to know if IC50 of O=C(Nc1ccc2cncc(Cl)c2c1)[C@@H]1CC1c1ccc(S(=O)(=O)Nc2ccc(F)cn2)cc1 (mixture of isomers) [Compound 16b] is below 40 nM. Could you check?
(A) satisfied

(Q) Hello, I'm reviewing records and need to know if IC50 of O=C(Nc1ccc2cnccc2c1F)[C@@H]1C[C@H]1c1ccc(S(=O)(=O)Nc2cccnc2)cc1 [Compound 29] is below 40 nM. Could you check?
(A) satisfied

(Q) Hello, I'm reviewing records and need to know if IC50 of O=C(Nc1ccc2cncc(Cl)c2c1)[C@@H]1CC1c1ccc(S(=O)(=O)Nc2cccnc2)cc1 (stereo partly drawn) [Compound 28] is below 40 nM. Could you check?
(A) not satisfied

(Q) Hello, I'm reviewing records and need to know if IC50 of O=C(Nc1ccc2cncc(Cl)c2c1)[C@@H]1C[C@H]1c1ccc(S(=O)(=O)Nc2ncccn2)cc1 [Compound 6] is below 40 nM. Could you check?
(A) not satisfied

(Q) Hello, I'm reviewing records and need to know if IC50 of Cc1cncc2ccc(NC(=O)[C@@H]3C[C@H]3c3ccc(S(=O)(=O)Nc4ncc(C5CCNCC5)cn4)cc3)cc12 [Compound 1] is below 40 nM. Could you check?
(A) satisfied

(Q) Hello, I'm reviewing records and need to know if IC50 of Cc1cncc2ccc(NC(=O)[C@@H]3C[C@H]3c3ccc(S(=O)(=O)Nc4cccnc4)cc3)cc12 [Compound 27] is below 40 nM. Could you check?
(A) not satisfied

(Q) Hello, I'm reviewing records and need to know if IC50 of O=C(Nc1ccc2cncc(Cl)c2c1)[C@@H]1C[C@H]1c1ccc(S(=O)(=O)Nc2ccc(F)cn2)cc1 [Compound 15] is below 40 nM. Could you check?
(A) not satisfied

(Q) Hello, I'm reviewing records and need to know if IC50 of CCc1cncc2ccc(NC(=O)[C@@H]3C[C@H]3c3ccc(S(=O)(=O)Nc4ncccn4)cc3)cc12 [Compound 7] is below 40 nM. Could you check?
(A) not satisfied
